- Tested on: MS2 coat protein
- Protocol Details: apparent KD of MS2 coat protein, switch ON state; designed switch direction (-1 OFF switch, 1 ON switch): 1; higher = weaker reporter binding
- Run Parameters: FMN input: 0 or 200 uM; Eterna round: R93 (includes R88 designs)
Label rule, in plain words: apparent KD of MS2 coat protein of 20 nM and up is Y, under 20 nM is N.

{"columns": ["Residue Sequence", "Assigned Label"],
 "data": [
  ["CAUAGACAUGAGGAUCACCCAUGUAGAAUUAUGGGAGGAUAUACAAAGACGAGAGUCAGAGUAGAAGGCCUAGGAC [salish99-ss1-164]", "N"],
  ["AAAAGACAUGAGGAUCACCCAUGUCGAAAGACAUGAGGAUAUGUACAGACUUCGGUCUGUACAGAAGGCAUAAAAA [SS1 - 1061]", "Y"],
  ["AGGAAACAUGAGGAUCACCCAUGUAUAAAAAUGGGAGGAUAUACUAAGACGAAAGUCAUAGUAGAAGGCCUAAAAA [76%, Meechl, 8]", "Y"]
]}

Q: State whether the measured apparent KD of MS2 coat protein reaches 20 nM, counting equality as reaching it, for AAUACACAUAGUCAGGAUAUCAAAAAUAAGACAUGAGGAUCACCCAUGUAAUAAGUAAAAGUAAAUGAGAAGGGACAGGGUGAAA [JR_SS002_Sub402]
Result: Y

Q: State whether the measured apparent KD of MS2 coat protein reaches 20 nM, counting equality as reaching it, for CGAAGACAUGAGGAUCACCCAUGUGGGAUUAUGGGAGGAUAUACAAAGACGAGAGUCAGAGUAGAAGGCCUAGGAC [salish99-ss1-127(!)]
Result: Y

Q: State whether the measured apparent KD of MS2 coat protein reaches 20 nM, counting equality as reaching it, for UUUCAUUACACGAAGGAUAUCGCUUUUCAGACAUGAGGAUCACCCAUGUAGUAGAUUUCCCUGUUCGAGAAGGUCGCGGGUGAAC [JR_SS002_Sub603]
Result: Y

Q: State whether the measured apparent KD of MS2 coat protein reaches 20 nM, counting equality as reaching it, for AAGAAACAUGAGGAUCACCCAUGUAAGAUAAACACAGGAUAUGCGAAAGAAACAAAGAAAGCAGAAGGGUGAAGAA [Mat - Same State 1 - Tesla mod - 48]
Result: N

Q: State whether the measured apparent KD of MS2 coat protein reaches 20 nM, counting equality as reaching it, for AACAAUCUAUCUGAGGAUAUGUGUCGAAAGACAUGAGGAUCACCCAUGUAAAAACAUGAAAAAACACAGAAGGCAGAUAGAUUGA [SS2: 1146]
Result: Y

---

- System: MS2 coat protein
- Protocol Details: apparent KD of MS2 coat protein; designed switch direction (-1 OFF switch, 1 ON switch): -1; higher = weaker reporter binding
- Run Parameters: input ligand: none
Label rule, in plain words: apparent KD of MS2 coat protein of 20 nM and up is T, under 20 nM is F.

Here are 2 sequences together with their reported answers.
{"columns": ["Residue Sequence", "Assigned Label"],
 "data": [
  ["CGAUAAUCCAAGGAUAUGCUAGACGAAAGUCUAGCAGAAGGUGGAACAUGAGGAUCACCCAUGUGUCCAAAUCG [Mat - Exclusion 6 - Eli Mod - D27] (Eterna round: R97, puzzle: Exclusion 6)", "F"],
  ["AUUUACGGAGGAUAUACUUGAGGAUCACCCAAGUGGAGUCCCGUUUGGGCGGUAAAUAGUAGAAGGCCGUCCCA [jl-ex3-4.45 ViennaUCT mod] (Eterna round: R97, puzzle: Exclusion 3)", "F"]
]}

Q: State whether the measured apparent KD of MS2 coat protein reaches 20 nM, counting equality as reaching it, for UAUUAGCAAGCAACUGGGUACAUGAGGAUCACCCAUGUGCUCGUCUUAUAAGGUACUGUUACGAAAGUCACGGUACC [mod--Eli12] (Eterna round: R97, puzzle: Sensor, turn-off variant 1)
Result: F

Q: State whether the measured apparent KD of MS2 coat protein reaches 20 nM, counting equality as reaching it, for ACAUGAGGAUCACCCAUGUCAGGUUGGUUCUCUCCGGCUGUUGAGGAUAUAGUCCGGUAUCCGCGCUAGAAGGUGAGGGCUGGC [Aenatbe mod 14] (Eterna round: R96, puzzle: Exclusion NG 3)
Result: T

Q: State whether the measured apparent KD of MS2 coat protein reaches 20 nM, counting equality as reaching it, for AGCGCCAUCGUGAGAUGGCGUAUUACAUGAGGAUCACCCAUGUAGGAUAUCGAUUGCUUUGCAGUCGAGAAGGGCAUGUACCAG [JL ENG3 3.80 Mod K] (Eterna round: R96, puzzle: Exclusion NG 3)
Result: T

---

- Test system: MS2 coat protein
- Protocol Details: apparent KD of MS2 coat protein; designed switch direction (-1 OFF switch, 1 ON switch): -1; higher = weaker reporter binding
- Run Parameters: Eterna round: R95; input ligand: microRNA oligo, concentration not stated
Attribute: apparent KD of MS2 coat protein
All answers are understood in nM, so give the number only.

{"columns": ["Residue Sequence", "apparent KD of MS2 coat protein [nM]"],
 "data": [
  ["AUCGUGAAGAAGGAUAUGGGCCCGGUAAUACGACUAGAAGGUCUGACAUGAGGAUCACCCAUGUGAUACCAAAA [Arorquis] (puzzle: Exclusion 6)", 33.3],
  ["GGUACUAACACGAGAGUGUUAGUACUAUAAGCUUGUGUUACAUGAGGAUCACCCAUGUCCUCAUAAGCUCGUCUUGA [Mat - Sensor v3 - Turn-off var 2 - D90] (puzzle: Sensor v3, turn-off variant 2)", 974],
  ["UCAUAACAUGAGGAUCACCCAUGUGAGGAUAUGAUACUAUGUACUUCGGUACAUAGUAUCAGAAGGCACAUGCU [Brourd's Ex1-3: 11 (nt 72 G)] (puzzle: Exclusion 1)", 127]
]}

Summary for this sequence, CAUACACAUGAGGAUCACCCAUGUGAGGAUAUGCGUACGUUGUCCGUAGGCGACGUGCGCAGAAGGCGCAAGGU [JL-ex1-3.17 Eli mod] (puzzle: Exclusion 1) : apparent KD of MS2 coat protein is 50.4

Summary for this sequence, GGUCCUCCGGAGGAUAUGGAACUGGAGGUAGUACCAGAAGGCCGAACAUGAGGAUCACCCAUGUGCCCGUAAAA [Aarlean] (puzzle: Exclusion 6) : apparent KD of MS2 coat protein is 17

---

Attribute: apparent KD of MS2 coat protein
- Test system: MS2 coat protein
- Protocol Details: apparent KD of MS2 coat protein; designed switch direction (-1 OFF switch, 1 ON switch): -1; higher = weaker reporter binding
- Run Parameters: input ligand: FMN 200 uM

{"columns": ["Residue Sequence", "apparent KD of MS2 coat protein"],
 "data": [
  ["AACCUGAGGCAAAGCUUUAGGCUUACAUGAGGAUCACCCAUGUAGGAUAUGGUAGGCAAAGCUUACCAGAAGGACAUGGAAAUU [Mat - Exclusion NG 3 - Mod of JL - D24] (Eterna round: R96, puzzle: Exclusion NG 3)", "611 nM"],
  ["UUACCCUGAGGAUAUCCACCGUGAUACAUGAGGAUCACCCAUGUUAAUGCCUGAGUUCCCGGAGAAGGCAGAUUCC [Megrez] (Eterna round: R97, puzzle: Exclusion 5)", "35.3 nM"],
  ["UUAAAUCAUGUAGGAUAUGCUUUGCGAAGCGAGGCAGAAGGACAUGAGGAUCACCCAUGUGCUAGCGUCCGCGUACGGAUGCAA [Mat - Exclusion NG 1 - Mod of JL - D61] (Eterna round: R96, puzzle: Exclusion NG 1)", "166 nM"],
  ["ACAUGAGGAUCACCCAUGUGAACGAAAAGGCUCAUGUAGAGUGAGGAUAUGUGAGACGAACGAGAACAGAAGGCACAAGACAGG [Deportation 1 - Jieux - Exclusion NG 3] (Eterna round: R96, puzzle: Exclusion NG 3)", "20.7 nM"]
]}

Continue with the sequence presented below.
Summary for this sequence, GCUCGUCUUGUAAUGUUUAACAUGAGGAUCACCCAUGUCACCAACGUCGGAGAUGCAGGUUCAUGUUUUAAUGUAUA [Eternabot (L2) Solution 23] (Eterna round: R97, puzzle: Sensor, turn-off variant 1) : apparent KD of MS2 coat protein is 83.5 nM

---

- Test system: MS2 coat protein
- Protocol Details: apparent KD of MS2 coat protein; higher = weaker reporter binding
- Run Parameters: Eterna round: R107; input ligand: arginine 13.2 mM
Experimental Readout: apparent KD of MS2 coat protein (nM)
All answers are understood in nM, so give the number only.

Worked cases, answers included:
{"columns": ["Residue Sequence", "apparent KD of MS2 coat protein, nM"],
 "data": [
  ["UCGACGAUGACCAAAGGUCAGGAGUACGUACGAGGACCGGUACGGCCGCCACUCGAGGAGUGGGACAUGAGGAUCACCCAUGUGG [#20 Exclusion Tryptophan A]", 16.6],
  ["AAAGGACAUGAGGAUCACCCAUGUCUCGAUACCAGCCGAUCAUCAGGCCCUUGGCAGCGAGACAAGGGUCAUGGAUCGCGGUUCU [Beerusmage]", 11.7],
  ["UGUAUGGACUGAAGGAGCGGGUAAUAAACUUGAGGAUCACCCAGGUAAUAGGCGAAAGCCACCCAGGUAGGUCGCAGUCCAUACU", 32.7],
  ["AGACAUGAGGAUCACCCAUGUAGUAUGGAUACCAGAUCCAGAUUUAUCCCUUGGCAGCUGUGGUACAGCGUUGCAACGCUCCUAG [Exclusion - Theophylline A (Freestyle 14)]", 30.4],
  ["ACUUUGUCGGGUGAUACCAGCCUCGGCACAUCUCGUGCCGAACAUGAGGAUCACCCAUGUGGCCCUUGGCAGCACAUGACAAAUC [Isredior]", 70.1],
  ["AGCUCGCAUCCUCUAGCGUCAAAGACGCGUCGAGGACCGGUACGGCCGCCACUCGACUUGAGGAUCACCCAGGUCAAAGCGAGCA [TrypAX 13 #SwitchBubble #AlternativeMS2 #MS2Late #CuTurnoff]", 148]
]}

Continue with the sequence presented below.
apparent KD of MS2 coat protein value, target or system MS2 coat protein, for GAUGAUAUUGCAGAUACCAGACACAUGAGGAUCACCCAUGUCGCUGGGUCGCUGGGUCGUGUCCCUUGGCAGCUGCGAUAUCAUC [Tibet] : 16.3
